Data provenance: the supplement of paper PMC10567573

B1: ACBD3 (parent)
chain: YVASHKIEKEEQEKKRKEEEERRR

Variants of: B1
protocolNotes: protein stability index of a GFP-peptide fusion (GPS, HEK-293T) (PSI 1-6); higher = more stable;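 further: lentivirally expressed fusions sorted by FACS into six bins by GFP to DsRed ratio, PSI derived from sequencing read proportions per bin multiplied by bin number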
recordedConditions: c terminus: a fixed tail appended
reportedMetric: protein stability index
Answer with a bare number; do not write a unit.

# get_value(readout='protein stability index', item= YVASHKITKEEQEKKRKEEEERRR [E8T] ) 2.13

For YVASHKIEKEEQEKKRKREEERRR [E18R] , what is its reported protein stability index? 2.26

Recorded protein stability index of YVASHKIEKEYQEKKRKEEEERRR [E11Y] , please. 2.37

I have this variant here, YVASHKIEKERQEKKRKEEEERRR [E11R] , and I need its recorded protein stability index. 1.93

# query: protein stability index of entry YVASHKIEKEEQEKKRKEEDERRR [E20D] 2.63

Would you mind telling me what protein stability index value was observed for YVASHKILKEEQEKKRKEEEERRR [E8L] ? 2.33

Given the variant YVASHKIEKAEQEKKRKEEEERRR [E10A] , what is its reported protein stability index? 1.55

Consider the variant YVASHKIEIEEQEKKRKEEEERRR [K9I] and give its measured protein stability index. 2.29

Value lookup for protein stability index; key = YVASHKIEKEELEKKRKEEEERRR [Q12L] 2.78

# protein stability index lookup, item YVESHKIEKEEQEKKRKEEEERRR [A3E] 2.84

What value of protein stability index has been reported for the following variant? YVASHKIEKEEQEKKRKEEEERRG [R24G] 2.54
